System: human blood plasma
Experiment: Prothrombin time (PT) clotting assay
Assay type: biochemical
Settings: c 10 mg/L
Where a name gives a salt, the structure may show the parent alone. Where a SMILES comes first, the peptide text is derived from it.

molecule: NCC(=O)NCC1CCC(C(=O)O)CC1 (centres unmarked) [Amide 7]
PT Time [% of Control]: 95.4 ± 7.4 % of Control
--
molecule: Cl.NCCCCCC(=O)NCC(=O)O [Amide 1]
PT Time [% of Control]: 96.3 ± 2.5 % of Control
--
molecule: NCCCCCC(=O)NCC1CCC(C(=O)O)CC1 (centres unmarked) [Amide 3]
PT Time [% of Control]: 94.9 ± 2.2 % of Control
--
molecule: Cl.NCCCCCC(=O)NCc1ccc(C(=O)O)cc1 [Amide 2]
PT Time [% of Control]: 97.0 ± 4.8 % of Control
--
molecule: Cl.NCCCCCC(=O)NCCCCCC(=O)O [Amide 4]
PT Time [% of Control]: 97.3 ± 4.2 % of Control
--
molecule: NCC(=O)NCC(=O)O [Amide 5, Glycylglycine hydrochloride] (H-Gly-Gly-OH)
PT Time [% of Control]: 95.0 ± 10.5 % of Control
--
molecule: Cl.NCC(=O)NCCCCCC(=O)O [Amide 8]
PT Time [% of Control]: 93.0 ± 2.2 % of Control
--
molecule: Cl.NCC(=O)NCc1ccc(C(=O)O)cc1 [Amide 6]
PT Time [% of Control]: 96.1 ± 4.4 % of Control

* * *

Test system: human blood plasma
Test: Clot formation and fibrinolysis (CFF) assay
Assay type: biochemical
Details: 25 mg/L; control plasma assumed as 100%; mean ± SD, n = 5–7
Structures can show the parent of a compound that is named as a salt. Where a SMILES comes first, the peptide text is derived from it.

compound: NC[C@H]1CC[C@H](C(=O)O)CC1 [TA, reference compound]
VmaxC (of Fibrin Polymerization) [%]: 104.75

compound: NCCCCCC(=O)NCC1CCC(C(=O)O)CC1 (stereo not drawn) [Amide 3]
VmaxC (of Fibrin Polymerization) [%]: 103.88

compound: NCC(=O)NCC1CCC(C(=O)O)CC1 (stereo not drawn) [Amide 7]
VmaxC (of Fibrin Polymerization) [%]: 104.39

compound: Cl.NCC(=O)NCCCCCC(=O)O [Amide 8]
VmaxC (of Fibrin Polymerization) [%]: 100.98

compound: Cl.NCCCCCC(=O)NCc1ccc(C(=O)O)cc1 [Amide 2]
VmaxC (of Fibrin Polymerization) [%]: 106.30

compound: NCC(=O)NCC(=O)O [Amide 5, Glycylglycine hydrochloride] (H-Gly-Gly-OH)
VmaxC (of Fibrin Polymerization) [%]: 105.88

compound: Cl.NCC(=O)NCc1ccc(C(=O)O)cc1 [Amide 6]
VmaxC (of Fibrin Polymerization) [%]: 103.10

compound: Cl.NCCCCCC(=O)NCCCCCC(=O)O [Amide 4]
VmaxC (of Fibrin Polymerization) [%]: 105.85

compound: Cl.NCCCCCC(=O)NCC(=O)O [Amide 1]
VmaxC (of Fibrin Polymerization) [%]: 105.66

* * *

Assay: Hemolysis assay (stability of erythrocytes)
Format: cell-based, human
Details: male, human, heparinized whole blood diluted with saline (erythrocytes), c 50 mg/L as printed in the third concentration block of amides 7 and 8, 45 min
hemolysis at 45 min, 50 mg/L by entry:

compound: NCC(=O)NCC1CCC(C(=O)O)CC1 (centres unmarked) [Amide 7]
hemolysis at 45 min, 50 mg/L [%]: 0
--
compound: Cl.NCC(=O)NCCCCCC(=O)O [Amide 8]
hemolysis at 45 min, 50 mg/L [%]: 0

* * *

Assay: Hemolysis assay (stability of erythrocytes)
Format: cell-based, human
Conditions: male, human, heparinized whole blood diluted with saline (erythrocytes), c 500 mg/L, 45 min
Rule: measured hemolysis at 45 min, 500 mg/L below 0.4% gets yes (1); anything equal to or greater than 0.4% gets no (0).

compound: Cl.NCCCCCC(=O)NCc1ccc(C(=O)O)cc1 [Amide 2]
answer_label: no (0)
//
compound: Cl.NCCCCCC(=O)NCCCCCC(=O)O [Amide 4]
answer_label: yes (1)
//
compound: NCC(=O)NCC1CCC(C(=O)O)CC1 (centres unmarked) [Amide 7]
answer_label: yes (1)
//
compound: NCCCCCC(=O)NCC1CCC(C(=O)O)CC1 (centres unmarked) [Amide 3]
answer_label: no (0)

* * *

Assay: Hemolysis assay (stability of erythrocytes)
Assay type: cell-based, human
Conditions: male, human, heparinized whole blood diluted with saline (erythrocytes), c 50 mg/L, 45 min

compound: Cl.NCCCCCC(=O)NCCCCCC(=O)O [Amide 4]
hemolysis at 45 min, 50 mg/L [%]: 0
--
compound: Cl.NCC(=O)NCc1ccc(C(=O)O)cc1 [Amide 6]
hemolysis at 45 min, 50 mg/L [%]: 0
--
compound: NCC(=O)NCC1CCC(C(=O)O)CC1 (stereo not shown) [Amide 7]
hemolysis at 45 min, 50 mg/L [%]: 0.41
--
compound: Cl.NCCCCCC(=O)NCc1ccc(C(=O)O)cc1 [Amide 2]
hemolysis at 45 min, 50 mg/L [%]: 0.11
--
compound: NCCCCCC(=O)NCC1CCC(C(=O)O)CC1 (stereo not shown) [Amide 3]
hemolysis at 45 min, 50 mg/L [%]: 0
--
compound: Cl.NCC(=O)NCCCCCC(=O)O [Amide 8]
hemolysis at 45 min, 50 mg/L [%]: 0.44
--
compound: Cl.NCCCCCC(=O)NCC(=O)O [Amide 1]
hemolysis at 45 min, 50 mg/L [%]: 0.5

* * *

Assay: Hemolysis assay (stability of erythrocytes)
Type: cell-based, human
Conditions: male, human, heparinized whole blood diluted with saline (erythrocytes), c 50 mg/L as printed in the third concentration block of amides 7 and 8, 240 min
hemolysis at 240 min, 50 mg/L by entry:

molecule: Cl.NCC(=O)NCCCCCC(=O)O [Amide 8]
hemolysis at 240 min, 50 mg/L (%): 0.37

molecule: NCC(=O)NCC1CCC(C(=O)O)CC1 (centres unmarked) [Amide 7]
hemolysis at 240 min, 50 mg/L (%): 0.38

* * *

Where a name gives a salt, the structure may show the parent alone.

compound: Cl.NCC(=O)NCc1ccc(C(=O)O)cc1 [Amide 6]
melting point: 235 to 238 °C

compound: NCCCCCC(=O)NCC1CCC(C(=O)O)CC1 (centres unmarked) (as salt: hydrochloride) [Amide 3]
melting point: 195 to 197 °C

compound: NCC(=O)NCC1CCC(C(=O)O)CC1 (centres unmarked) (as salt: hydrochloride) [Amide 7]
melting point: 221 to 224 °C

compound: Cl.NCCCCCC(=O)NCc1ccc(C(=O)O)cc1 [Amide 2]
melting point: 199 to 201 °C

compound: Cl.NCC(=O)NCCCCCC(=O)O [Amide 8]
melting point: 120 to 123 °C

* * *

Tested on: human blood plasma
Assay: Clot formation and fibrinolysis (CFF) assay
Format: biochemical
Settings: tested at 10, 25, 50 mg/L
endpoint_label: effect on fibrin polymerization (VmaxC) in words

compound: Cl.NCC(=O)NCCCCCC(=O)O [Amide 8]
test_value: did not influence
--
compound: NC[C@H]1CC[C@H](C(=O)O)CC1 [TA, reference compound]
test_value: did not influence

* * *

Assay: Hemolysis assay (stability of erythrocytes)
Type: cell-based, human
Conditions: male, human, heparinized whole blood diluted with saline (erythrocytes), c 500 mg/L, 120 min
hemolysis at 120 min, 500 mg/L by entry:
endpoint_label: hemolysis at 120 min, 500 mg/L (%)

compound: Cl.NCCCCCC(=O)NCc1ccc(C(=O)O)cc1 [Amide 2]
value_units: %
test_value: 0.21

compound: Cl.NCCCCCC(=O)NCC(=O)O [Amide 1]
value_units: %
test_value: 0.56

compound: Cl.NCCCCCC(=O)NCCCCCC(=O)O [Amide 4]
value_units: %
test_value: 0.21

compound: NCCCCCC(=O)NCC1CCC(C(=O)O)CC1 (centres unmarked) [Amide 3]
value_units: %
test_value: 0.65

compound: Cl.NCC(=O)NCc1ccc(C(=O)O)cc1 [Amide 6]
value_units: %
test_value: 0.68

* * *

Experiment: Hemolysis assay (stability of erythrocytes)
Type: cell-based, human
Details: male, human, heparinized whole blood diluted with saline (erythrocytes), c 5 mg/L, 45 min
Rule: measured hemolysis at 45 min, 5 mg/L below 0.4% gets yes (1); anything equal to or greater than 0.4% gets no (0).

compound: Cl.NCC(=O)NCc1ccc(C(=O)O)cc1 [Amide 6]
answer_label: yes (1)
--
compound: Cl.NCCCCCC(=O)NCC(=O)O [Amide 1]
answer_label: yes (1)
--
compound: NCCCCCC(=O)NCC1CCC(C(=O)O)CC1 (stereo not shown) [Amide 3]
answer_label: no (0)
--
compound: NCC(=O)NCC1CCC(C(=O)O)CC1 (stereo not shown) [Amide 7]
answer_label: yes (1)
--
compound: Cl.NCCCCCC(=O)NCCCCCC(=O)O [Amide 4]
answer_label: no (0)
--
compound: Cl.NCC(=O)NCCCCCC(=O)O [Amide 8]
answer_label: yes (1)
